Would you kindly list half-life at 1 μM for each of these compounds?
assay: Determination of metabolic stability in human liver microsomes; format: in vitro ADME; conditions: pH 7.4; repeated experiment (Table 4); 0.5 mg/mL human liver microsomes, 1 μM test compound, 2 mM NADPH, 37° C., 0-30 minutes; read-out: In vitro half-life t1/2 in human liver microsomes
Give bare numbers, in h.

Below, each entry is followed by its recorded half-life at 1 μM result.
COMPOUND	RECORDED NUMBER
[2H]C1([2H])CC(n2nnnc2CCCCOc2ccc3[nH]c(=O)ccc3c2)CC([2H])([2H])C1([2H])[2H]	1.49
[2H]C1([2H])CC(n2nnnc2CCCCOc2ccc3c(c2)CCC(=O)N3)CC([2H])([2H])C1([2H])[2H]	1.32

Now, please, on to the next compound.
Give the measured half-life at 1 μM of O=c1ccc2cc(OCCCCc3nnnn3C3CCCCC3)ccc2[nH]1 [Dehydrocilostazol, reference compound] . 1.31

---

experiment: Determination of metabolic stability in human liver microsomes; assay type: in vitro ADME; settings: pH 7.4; first experiment (Table 3); 0.5 mg/mL human liver microsomes, 1 μM test compound, 2 mM NADPH, 37° C., 0-30 minutes; read-out: In vitro half-life t1/2 in human liver microsomes
# label = criterion met if half-life at 1 μM >= 50 min else criterion not met

GIVEN SMILES	CATEGORY LABEL
[2H]C1([2H])CCC(n2nnnc2CCCCOc2ccc3c(c2)C([2H])([2H])C([2H])([2H])C(=O)N3)CC1	criterion not met

As a next step, examine the compound that follows.
Is reported half-life at 1 μM greater than or equal to 50 min here: [2H]C1([2H])CCC(n2nnnc2CCCCOc2ccc3c(c2)CCC(=O)N3)CC1 criterion not met

---

test: Determination of metabolic stability in human liver microsomes; type: in vitro ADME; details: pH 7.4; first experiment (Table 3); 0.5 mg/mL human liver microsomes, 1 μM test compound, 2 mM NADPH, 37° C., 0-30 minutes; read-out: In vitro half-life t1/2 in human liver microsomes
Would you kindly list half-life at 1 μM for each of these compounds?
Give bare numbers, in h.

Below, each entry is followed by its recorded half-life at 1 μM result.
GIVEN SMILES	half-life at 1 μM / h
[2H]C1([2H])C([2H])([2H])C([2H])([2H])C([2H])(n2nnnc2CCCCOc2ccc3[nH]c(=O)ccc3c2)C([2H])([2H])C1([2H])[2H]	1.24
[2H]C1([2H])C([2H])([2H])C([2H])([2H])C([2H])(n2nnnc2CCCCOc2ccc3c(c2)CCC(=O)N3)C([2H])([2H])C1([2H])[2H]	1.32

Give the measured half-life at 1 μM of O=C1CCc2cc(OCCCCc3nnnn3C3CCCCC3)ccc2N1 . 0.78
